# pIC50 listing for each entry below
Target: UniProt:P9WKE1
Assay: Inhibition of Mycobacterium tuberculosis H37Rv TMPK expressed in Escherichia coli by coupled enzyme based spectrophotometric analysis
Reminder that pIC50 is minus the log10 of a molar concentration.

* Cc1cn(C2CCN(Cc3ccnc(Oc4cccc(Cl)c4)c3)CC2)c(=O)[nH]c1=O | 5.51
* COc1cccc(Oc2cccc(CN3CCC(n4cc(C)c(=O)[nH]c4=O)CC3)c2)c1 | 5.92
* COc1ccc(Oc2cccc(CN3CCC(n4cc(C)c(=O)[nH]c4=O)CC3)c2)cc1 | 4.98
* Cc1cn(C2CCN(Cc3cncc(Oc4ccccc4)c3)CC2)c(=O)[nH]c1=O | 5.19

Here is another compound to look at.
Task item: State the recorded pIC50 for this entry: Cc1cn(C2CCN(Cc3cccc(Oc4cccc(Cl)c4)n3)CC2)c(=O)[nH]c1=O
Reply: 6.35

* * *

Biological target: Thymidylate kinase (Mycobacterium tuberculosis, UniProt P9WKE1)
Sequence (P9WKE1 whole entry): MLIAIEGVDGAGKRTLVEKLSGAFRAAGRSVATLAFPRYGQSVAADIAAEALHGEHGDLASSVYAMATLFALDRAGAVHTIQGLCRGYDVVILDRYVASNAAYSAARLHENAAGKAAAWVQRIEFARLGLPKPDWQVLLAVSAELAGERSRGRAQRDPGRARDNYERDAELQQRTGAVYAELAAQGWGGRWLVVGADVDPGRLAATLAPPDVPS
// returns Not met unless IC50 is strictly below 20 µM, in which case Met

Observe how each entry below is paired with its result.
* Cc1cccc(Oc2cccc(CN3CCC(n4cc(C)c(=O)[nH]c4=O)CC3)c2)c1 | Not met
* Cc1cn(C2CCN(Cc3cccc(Oc4cccnc4)c3)CC2)c(=O)[nH]c1=O | Not met

Task item: Does Cc1cn(C2CCN(Cc3cccc(Oc4ccccc4C(=O)O)n3)CC2)c(=O)[nH]c1=O have IC50 strictly under 20 µM?
Reply: Not met

Task item: And the next one, Cc1cn(C2CCN(Cc3cc(Oc4ccccc4)ccn3)CC2)c(=O)[nH]c1=O ?
Reply: Met

Task item: And the next one, Cc1cn(C2CCN(Cc3cccc(Oc4ccc(Cl)c(C(F)(F)F)c4)c3)CC2)c(=O)[nH]c1=O ?
Reply: Met

Task item: And the next one, Cc1cn(C2CCN(Cc3cccc(Oc4cccc(C(F)(F)F)c4)c3)CC2)c(=O)[nH]c1=O ?
Reply: Met

Task item: And the next one, Cc1cn(C2CCN(Cc3cc(Oc4cc(Cl)cc(Cl)c4)ccn3)CC2)c(=O)[nH]c1=O ?
Reply: Met

Task item: And the next one, Cc1cn(C2CCN(Cc3cccc(Oc4ccccn4)c3)CC2)c(=O)[nH]c1=O ?
Reply: Not met

Task item: And the next one, Cc1cn(C2CCN(Cc3cccc(Oc4ccc(Cl)cc4)c3)CC2)c(=O)[nH]c1=O ?
Reply: Met

Task item: And the next one, Cc1cn(C2CCN(Cc3ccnc(Oc4ccccc4)c3)CC2)c(=O)[nH]c1=O ?
Reply: Met

* * *

Target: Thymidylate kinase (Mycobacterium tuberculosis)
Sequence (P9WKE1 whole entry): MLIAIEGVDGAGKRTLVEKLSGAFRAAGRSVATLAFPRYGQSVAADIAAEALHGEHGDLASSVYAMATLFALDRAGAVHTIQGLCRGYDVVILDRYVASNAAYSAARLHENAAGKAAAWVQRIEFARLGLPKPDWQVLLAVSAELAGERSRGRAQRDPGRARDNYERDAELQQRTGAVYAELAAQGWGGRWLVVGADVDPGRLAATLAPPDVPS
// returns Not satisfied unless IC50 is strictly below 3000 nM, in which case Satisfied

Observe how each entry below is paired with its result.
* Cc1ccc(Oc2cccc(CN3CCC(n4cc(C)c(=O)[nH]c4=O)CC3)c2)cc1 | Not satisfied
* Cc1cn(C2CCN(Cc3cccc(Oc4cc(C(F)(F)F)cc(C(F)(F)F)c4)c3)CC2)c(=O)[nH]c1=O | Satisfied
* Cc1cn(C2CCN(Cc3cccc(OC4CCCCC4)c3)CC2)c(=O)[nH]c1=O | Not satisfied

Task item: Does Cc1cn(C2CCN(Cc3cc(Oc4cccc(Cl)c4)ccn3)CC2)c(=O)[nH]c1=O have IC50 strictly under 3000 nM?
Reply: Satisfied

Task item: And the next one, Cc1cn(C2CCN(Cc3cccc(Oc4cccc(Cl)c4)c3)CC2)c(=O)[nH]c1=O ?
Reply: Satisfied
